Molecular target: T1, mouse IL-2Rα (mouse) (UniProt P01590)
T1 sequence (looked up): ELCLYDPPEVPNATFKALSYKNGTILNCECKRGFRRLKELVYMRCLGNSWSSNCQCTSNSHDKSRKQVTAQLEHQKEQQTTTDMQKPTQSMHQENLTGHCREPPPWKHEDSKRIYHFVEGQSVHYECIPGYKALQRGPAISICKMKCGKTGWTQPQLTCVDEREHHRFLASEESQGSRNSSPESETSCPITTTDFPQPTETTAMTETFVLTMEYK
Assay: ELISA, P.E. on coated antigen
Experimental Endpoint: OD (PE binding ELISA) (OD450 nm)
Reply with just the number (in OD450 nm).

Incoming: Request the reported OD (PE binding ELISA) associated with FJ1427_P035MP01E10 (VHH) VHH: QVQLVESGGGLVQAGDSLRLSCAASGRSFRNYILAWYRQAPGKEREFLAAISWLDGTLYADSVEDRFTISRDNPKNTVHLQMDSLKPEDTAVYYCAADRGPVRPVLAPDVDYWGQGTQVTVSS
Outgoing: 0.046

Incoming: Which OD (PE binding ELISA) reading was recorded for the binder FJ1427_P035MP01H08 (VHH) VHH: EVQLVESGGRLVQSGGSLRLSCAASGRAFSTHNMGWFRRAPGKEREFVAAISWNVDNKLYANSVKGRFAISRDNGRNMVYLQMNSLKPEDTAVYYCAADNIPLSSDMRATATEYDVWGQGTQVTVSS ?
Outgoing: 0.047

Incoming: Quick one: OD (PE binding ELISA) of FJ1427_P035MP01E07 (VHH) VHH: QVQLQESGGGLVQAGDSLRLSCAASGRSFRNYILAWYRQAPGKEREFLAAISWLEGTLYADSVEDRFTISRDNPKNTVHLQMDSLKPEDTAVYYCAADRGPVRPVLAPDVDYWGQGTQVTVSS ?
Outgoing: 0.046

Incoming: Tell me the measured OD (PE binding ELISA) of FJ1427_P035MP01G03 (VHH) VHH: QVQLVESGGGLVQAGDSLRLSCAASGRSFRNYILAWYRQAPGKEREFLAAISWLDGTLYADSVEDRFTISRDNPKNTVHLQMDNLKPEDTAVYYCAADQGPVRPVLAPDVDYWGQGTQVTVSS , please.
Outgoing: 0.048

Incoming: Could you tell me which OD (PE binding ELISA) is on file for FJ1427_P035MP01G01 (VHH) VHH: QVQLQESGGGLVQAGGSLRLSCAASGRTFRTHNMGWFRRAPGKEREFVAAISWNVDNTLYADSVKGRFTISRDNDRNMVYLQMNSLKPEDTAVYFCAADNIPLSSDVRATATEFGYWGQGTRVTVSS ?
Outgoing: 0.053

Incoming: Need OD (PE binding ELISA) of FJ1427_P035MP01A11 (VHH) VHH: QVQLVESGGGLVQPGGSLRLSCAASGRTFETHNMGWFRRAPGKEREFVAVISWNVDSTEYTDSVKGRFTISRDNDKNMVYLQMNSLKPEDTGVYYCAADNIPLSSDMSPTAAEYGYWGQGTQVTVSS , thanks.
Outgoing: 0.046

Incoming: Requested field: OD (PE binding ELISA). Item: FJ1427_P035MP01F08 (VHH) VHH: EVQLVESGGGWVQPGDSLRLSCAASGRSFRNYVMGWFRQVPGKEREFLSVITSLGGTLDADSVADRFTISRDNSKNTVYLQMDSLKPEDTAVYYCAADRGPARYISASDVDYWGQGTQVTVSS
Outgoing: 0.046

Incoming: # input binder: FJ1427_P035MP01G10 (VHH) VHH: EVQLVESGGGLVQAGGSLRLSCAASGGAFSRYAVGWFRMAPGKGREFVSAIDLSGTNTHVLDSVKGRFTISRDNDKNTAYLQMDKLQPEDTAVYWCAATSSSYSDYEANYNIWGQGTQVTVSS ; wanted: its OD (PE binding ELISA)
Outgoing: 0.046
